# assay.comment: Competitive inhibition of porcine erythrocyte calpain-2 using Suc-Leu-Tyr-AMC as substrate
# Design: species or system Sus scrofa
outcome.measure: Ki (nM)
Return type: number; implicit unit nM.

Input: Ki lookup needed for H-DPMSSTYIEELGKREVTIPPKYRELLA-OH , thanks.
Output: 8.7

----------
# Species on record: Rattus norvegicus
# assay.comment: Inhibition of rat recombinant C-terminal His-tagged calpain-2 expressed in Escherichia coli BL21(DE3) assessed as cleavage of (EDANS)-EPLFAERK-(DABCYL) at 100 uM in presence of CaCl2 by fluorescence spectrometer relative to control
Activity calls are given as the source filed them. No cut-off for these calls is given here.
outcome.measure: inhibition

Observe how each entry below is paired with its result.
• C[C@H](NC(=O)C/N=C1\N[C@@H](C)[C@@H](C(=O)NC(C)(C)C)N2CCC[C@H]12)C(=O)N[C@H](CCCN)C(=O)O = 66%
• CC(C)[C@H](NC(=O)C/N=C1\N[C@@H](C)[C@@H](C(=O)NC(C)(C)C)N2CCC[C@H]12)C(=O)N[C@H](CCCN)C(=O)O = 79%
• CC(C)C[C@@H]1NC(=O)[C@H](C)NC(=O)CNC(=O)[C@@H]2CCCN2[C@H](C(=O)NC(C)(C)C)[C@H](C)NC(=O)[C@H](CCCCN)NC1=O = 84%
• CC[C@H](C)[C@H](NC(=O)C/N=C1\N[C@@H](C)[C@@H](C(=O)NC(C)(C)C)N2CCC[C@H]12)C(=O)N[C@H](CCCN)C(=O)O = 67%
• C[C@@H]1NC(=O)[C@H](CCCN)NC(=O)CNC(=O)[C@H](CO)NC(=O)CNC(=O)[C@@H]2CCCN2[C@@H]1C(=O)NC(C)(C)C = 78%
• C[C@@H]1N/C(=N\CC(=O)N[C@@H](Cc2ccccc2)C(=O)N[C@H](CCCN)C(=O)O)[C@H]2CCCN2[C@@H]1C(=O)NC(C)(C)C = 39%

Input: What measured inhibition goes with CC(C)C[C@@H](NC(=O)C/N=C1\N[C@@H](C)[C@@H](C(=O)NC(C)(C)C)N2CCC[C@H]12)C(=O)N[C@H](CCCN)C(=O)O ?
Output: 16%

Input: What inhibition value was documented for this compound, CC(C)C[C@H](/N=C1\N[C@@H](C)[C@@H](C(=O)NC(C)(C)C)N2CCC[C@H]12)C(=O)N[C@@H](CCCCN)C(=O)NCC(=O)O ?
Output: > 85%

Input: Tell me the measured inhibition of CC(C)C[C@H](NC(=O)C/N=C1\N[C@@H](CSC2CC(=O)N(c3cccc(C(=O)c4ccccc4)c3)C2=O)[C@@H](C(=O)NC(C)(C)C)N2CCC[C@H]12)C(=O)N[C@H](CCCN)C(=O)O (stereo not given in full) , please.
Output: Active

Input: So what does the record say about inhibition for CC(C)C[C@@H]1NC(=O)[C@H](C)NC(=O)CNC(=O)[C@@H]2CCCN2[C@H](C(=O)NC(C)(C)C)[C@H](CSC2CC(=O)N(c3cccc(C(=O)c4ccccc4)c3)C2=O)NC(=O)[C@H](CCCCN)NC1=O (stereo not given in full) ?
Output: Active
